Molecular target: HLA-C*03:03
Test: IEDB peptide-MHC binding, purified MHC/direct/fluorescence; filed as Kd, often an IC50 or EC50 that approximates it; bounds were set here for any values at or beyond the usual limits of such assays
Conditions: source organism: Orthomarburgvirus marburgense
pKd: −log10 of the molar value.
READOUT_NAME: pKd

IN: Entry ISDPLTSGL has what pKd?
OUT: ≤ 4.70

----------
Target: HLA-A*24:02
Assay: IEDB peptide-MHC binding, purified MHC/competitive/radioactivity; filed as Kd, often an IC50 or EC50 that approximates it; bounds were set here for any values at or beyond the usual limits of such assays
Conditions: source organism: Dengue virus 1 Nauru/West Pac/1974
READOUT_NAME: Kd (nM)
The figure you give is taken to be in nM; do not add the unit.

IN: Entry LYAVATTII has what Kd?
OUT: 59.7
